Just for reference, the domain aggregation screens of Martell et al. (2025) is where these values come from.

assay: soluble fraction after stress (log2 fold change); higher = more stays soluble; pooled small domains, quantitative proteomics; conditions: stress: 50 degC
Task for the reader: assign each of the following sequences its reported soluble fraction (log2).

Recorded result, `HMDKKTMFNEALAKLVSYATAHDNLITMEDVKSFFNGLIDDDSQYKLIYDYLSINKIEIKGFT` , soluble fraction (log2): 0.2

Recorded result, `HMKLVAAGYHQNRLLVLLGIQAEELQAKRLLASFDRFRGREATPKPPIHDSARRWLRDTYHHVMNQVPVEL` , soluble fraction (log2): -1.07

Recorded result, `HMLKDGPIGAYADSVIRDIIEKMERFSKEHINVDMLKIHEKIMLIDEPIIRMALLDEFHRVSHDN` , soluble fraction (log2): -2.09

Recorded result, `HMEQKELAPLVPQEDGSVKLTNLAGYSMREVAAALEGGNLSLIPIGSGTSWKQDPAPGTVLQPGNTVTVYF` , soluble fraction (log2): 0.00354

Recorded result, `HMTKGVWHTVKKGENLYRISLYYEVPQQEIKKANKIETENIVVGQKLFIPNTTKKSPIFALTP` , soluble fraction (log2): -1.49

Recorded result, `HMDINEIILKVASEKKTFKTSDVLEALDNNYTKQHVSALISAMVKKGILVKAGSTAKSTYALPENASLL` , soluble fraction (log2): -0.264

Recorded result, `HMNGIFEYSDAKKVPSLVEIENAYRRARVNGAEKFAVIINGEYFGYNPQKRGIYKLNDGEYQIL` , soluble fraction (log2): -0.0706

Recorded result, `HMNSLQLGSRGPTVSALQAKLNTMLVPSPRLVADGSFGPKTAQAVKAFQQMKRLVADGVVGPKTAAALGLS` , soluble fraction (log2): -0.00877

Recorded result, `HMGWTTPAGIAVGMDKSVLQDAYGKEDDTFQDKGILYYQYFVHPSRMSGLSFGIKNDKIVSITAYMD` , soluble fraction (log2): -2.06
